Recorded values, source patent US6800618B2.

System: Plasmodium falciparum W2 clone
Assay: FIC index with chloroquine (isobologram analysis) in W2 clone
Format: cell-based
Design: key: 1.0 = additive; <1.0 = synergy; >1.0 = antagonism
Conditions: 1:1 combination of drug and chloroquine; chloroquine-resistant W2 clone
Description: In brief, the assay is based on the incorporation of radiolabeled hypoxanthine by the parasites and inhibition of isotope incorporation is attributed to activity of known or candidate antimalarial drugs. For each assay, proven antimalarials, such as chloroquine, mefloquine, quinine, artemisinin, pyrimethamine and sulfadoxine, were used as controls. […] The FIC is the actual IC50 of one compound in the presence of a second compound but is expressed as a fraction of its IC50 when used alone. […]
endpointLabel: FIC (fractional inhibitory concentration) index

# testSmiles, measuredValue
rows = [
    ("c1ccc2c(c1)Sc1ccccc1N2CCCCN1CCCCC1", 0.49),
    ("CN1CCN(CCCCN2c3ccccc3CCc3ccccc32)CC1", 0.52),
    ("c1ccc2c(c1)CCc1ccccc1N2CCCCCCN1CCCC1", 0.57),
    ("c1ccc2c(c1)CCc1ccccc1N2CCCCN1CCCC1", 0.32),
    ("c1ccc2c(c1)CCc1ccccc1N2CCCCN1CCCCC1", 0.45),
    ("c1ccc2c(c1)CCc1ccccc1N2CCCCN1CCOCC1", 0.31),
    ("CCN(CC)CCCCN(c1ccccc1)c1ccccc1", 0.48),
    ("c1ccc2c(c1)Sc1ccccc1N2CCCCN1CCOCC1", 0.39),
    ("c1ccc(N(CCCCN2CCCC2)c2ccccc2)cc1", 0.45),
    ("c1ccc2c(c1)Sc1ccccc1N2CCCCN1CCCC1", 0.21),
    ("CCN(CC)CCCCCCN1c2ccccc2CCc2ccccc21", 0.48),
    ("CN1CCN(CCCCN2c3ccccc3Sc3ccccc32)CC1", 0.4),
    ("CN(C)CCCCN1c2ccccc2CCc2ccccc21", 0.23),
    ("c1ccc2c(c1)CCc1ccccc1N2CCCCCN1CCCC1", 0.48),
    ("CN(C)CCCCN1c2ccccc2Sc2ccccc21", 0.23),
    ("CCN(CC)CCCCCN1c2ccccc2CCc2ccccc21", 0.44),
    ("CCN(CC)CCCCN1c2ccccc2CCc2ccccc21", 0.39),
    ("CCN(CC)CCCCN1c2ccccc2Sc2ccccc21", 0.23),
]

----------
Test system: TM91C235 cells
Assay: In vitro reversal activity (cell growth suppression, 3H-hypoxanthine incorporation) in TM91C235 cells
Assay type: cell-based, Plasmodium falciparum
Conditions: test compounds only, 500 ng/ml
Source text: For quantitative in vitro drug susceptibility testing, two well characterized P. falciparum clones, W2 and D6, were used. See Oduola et al. (1988) Exp Parasitol 66:86-95, which is herein incorporated by reference. W2 is a clone of the Indochina I isolate and is resistant to chloroquine and pyrimethamine, but susceptible to mefloquine. D6 is a clone from the Sierra I/UNC isolate and is susceptible to chloroquine and pyrimethamine, but has reduced susceptibilities to mefloquine and halofantrine. […]
# Control % sup listing for each entry below

# molecule, Control % sup
records = [
    ("Cc1ccc(CNCCCCN2c3ccccc3Sc3ccccc32)cc1 [7c]", "18%"),
    ("CN(C)CCCCN1c2ccccc2Sc2ccccc21 [7a, 10-(4-Dimethylaminobutyl)phenothiazine]", "27%"),
    ("c1ccc2c(c1)CCc1ccccc1N2CCCCN1CCCC1 [compound 7m, 5-(4-Pyrrolidin-1-yl-butyl)iminodibenzyl]", "98%"),
    ("c1ccc(CN(CCCCN2c3ccccc3Sc3ccccc32)Cc2ccccc2)cc1 [7d, 10-(4-Dibenzylaminobutyl)phenothiazine]", "10%"),
]

----------
System: TM91C235 cells
Test: In vitro reversal activity (cell growth suppression, 3H-hypoxanthine incorporation) in TM91C235 cells
Assay type: cell-based, Plasmodium falciparum
Details: test compound 5000 ng/ml combined with 10 ng/ml chloroquine
Text: For quantitative in vitro drug susceptibility testing, two well characterized P. falciparum clones, W2 and D6, were used. See Oduola et al. (1988) Exp Parasitol 66:86-95, which is herein incorporated by reference. W2 is a clone of the Indochina I isolate and is resistant to chloroquine and pyrimethamine, but susceptible to mefloquine. D6 is a clone from the Sierra I/UNC isolate and is susceptible to chloroquine and pyrimethamine, but has reduced susceptibilities to mefloquine and halofantrine. […]
// reported Chloroquine % sup for each item listed

# testSmiles, targetOrSystem, unitInfo, Chloroquine % sup
records = [
    ("c1ccc2c(c1)Sc1ccccc1N2CCCCN1CCCC1", "TM91C235 cells", "%", 100),
    ("CN(C)CCCCN1c2ccccc2Sc2ccccc21", "TM91C235 cells", "%", 100),
    ("CCN(CC)CCCCN1c2ccccc2Sc2ccccc21", "TM91C235 cells", "%", 100),
    ("Cc1ccc(CNCCCCN2c3ccccc3Sc3ccccc32)cc1", "TM91C235 cells", "%", 62),
    ("c1ccc(CN(CCCCN2c3ccccc3Sc3ccccc32)Cc2ccccc2)cc1", "TM91C235 cells", "%", 25),
    ("CCN(CC)CCCCN1c2ccccc2CCc2ccccc21", "TM91C235 cells", "%", 100),
    ("CN(C)CCCCN1c2ccccc2CCc2ccccc21", "TM91C235 cells", "%", 100),
    ("c1ccc2c(c1)CCc1ccccc1N2CCCCN1CCCC1", "TM91C235 cells", "%", 100),
    ("Cc1ccc(CNCCCCN2c3ccccc3CCc3ccccc32)cc1", "TM91C235 cells", "%", 33),
    ("c1ccc(CN(CCCCN2c3ccccc3CCc3ccccc32)Cc2ccccc2)cc1", "TM91C235 cells", "%", 13),
]

----------
# maps each entry to its Control % sup
tested on: TM91C235 cells; assay: In vitro reversal activity (cell growth suppression, 3H-hypoxanthine incorporation) in TM91C235 cells; assay type: cell-based, Plasmodium falciparum; conditions: test compounds only, 50 ng/ml
endpointLabel: Control % sup (%)

# testSmiles, endpointLabel, unitInfo, measuredValue
rows = [
    ("CCN(CC)CCCCN1c2ccccc2Sc2ccccc21", "Control % sup", "%", 26),
    ("CN(C)CCCCN1c2ccccc2CCc2ccccc21", "Control % sup", "%", 59),
    ("Cc1ccc(CNCCCCN2c3ccccc3Sc3ccccc32)cc1", "Control % sup", "%", 13),
    ("c1ccc2c(c1)Sc1ccccc1N2CCCCN1CCCC1", "Control % sup", "%", 38),
    ("c1ccc(CN(CCCCN2c3ccccc3Sc3ccccc32)Cc2ccccc2)cc1", "Control % sup", "%", 7),
    ("c1ccc2c(c1)CCc1ccccc1N2CCCCN1CCCC1", "Control % sup", "%", 58),
]

----------
test system: TM91C235 cells; test: In vitro reversal activity (cell growth suppression, 3H-hypoxanthine incorporation) in TM91C235 cells; type: cell-based, Plasmodium falciparum; conditions: test compounds only, 50 ng/ml
endpointLabel: Control % sup (%)

# testSmiles, endpointLabel, unitInfo, measuredValue
rows = [
    ("CN(C)CCCCN1c2ccccc2Sc2ccccc21", "Control % sup", "%", 17),
    ("Cc1ccc(CNCCCCN2c3ccccc3CCc3ccccc32)cc1", "Control % sup", "%", 30),
    ("c1ccc(CN(CCCCN2c3ccccc3CCc3ccccc32)Cc2ccccc2)cc1", "Control % sup", "%", 11),
    ("CCN(CC)CCCCN1c2ccccc2CCc2ccccc21", "Control % sup", "%", 62),
]

----------
Entries and their Control % sup values follow.
system: TM91C235 cells; assay: In vitro reversal activity (cell growth suppression, 3H-hypoxanthine incorporation) in TM91C235 cells; type: cell-based, Plasmodium falciparum; conditions: test compounds only, 500 ng/ml
endpointLabel: Control % sup (%)

# testSmiles, endpointLabel, unitInfo, measuredValue
measured = [
    ("CCN(CC)CCCCN1c2ccccc2Sc2ccccc21", "Control % sup", "%", 38),
    ("c1ccc2c(c1)Sc1ccccc1N2CCCCN1CCCC1", "Control % sup", "%", 70),
    ("c1ccc(CN(CCCCN2c3ccccc3CCc3ccccc32)Cc2ccccc2)cc1", "Control % sup", "%", 17),
    ("CCN(CC)CCCCN1c2ccccc2CCc2ccccc21", "Control % sup", "%", 95),
    ("CN(C)CCCCN1c2ccccc2CCc2ccccc21", "Control % sup", "%", 73),
    ("Cc1ccc(CNCCCCN2c3ccccc3CCc3ccccc32)cc1", "Control % sup", "%", 32),
]
